Below: a set of entries, each annotated with reported inhibitory rate (%).
System: FLAP (5-lipoxygenase activating protein)
Test: In vitro binding test: displacement of [3H]-7-chloro-3-(5-((3-fluoropyridin-2-yl)methoxy)-2-methylphenyl)-3,4-dihydroquinazolin-2(1H)-one from Sf9 microsome fractions
Set-up: species or system human and mouse
Settings: Sf9 microsome fractions expressing FLAP; 100% = radioligand binding with 10 μM sodium 3-(3-(tert-butylsulfanyl)-1-(4-chlorobenzyl)-5-isopropyl-1H-indol-2-yl)-2,2-dimethylpropanoate, 0% = DMSO; test compound concentration not given

- COMPOUND: "COc1ccc(CN2C(=O)N(c3cc(OCc4ncccc4F)ccc3Br)Cc3ccccc32)cc1"
  TARGET_DESC: "FLAP (5-lipoxygenase activating protein)"
  inhibitory rate (%): 116
- COMPOUND: "Cc1cc2c(cc1N1Cc3c(cc(-n4cccn4)nc3C3CC3)NC1=O)OC(c1ncccc1F)CC2 (centres unmarked)"
  TARGET_DESC: "FLAP (5-lipoxygenase activating protein)"
  inhibitory rate (%): 104
- COMPOUND: "COCCOc1cccc2c(=O)n(-c3cc(OCc4ncccc4F)ccc3C)c(=O)[nH]c12"
  TARGET_DESC: "FLAP (5-lipoxygenase activating protein)"
  inhibitory rate (%): 104
- COMPOUND: "Cc1ccc(OCc2c(F)cccc2F)cc1-n1c(=O)[nH]c2cc(C(C)(C)O)ccc2c1=O"
  TARGET_DESC: "FLAP (5-lipoxygenase activating protein)"
  inhibitory rate (%): 108
- COMPOUND: "CCOC(=O)CCCCc1ccc(OCc2ncccc2F)cc1N1Cc2ccccc2NC1=O"
  TARGET_DESC: "FLAP (5-lipoxygenase activating protein)"
  inhibitory rate (%): 98
- COMPOUND: "O=C1Nc2cc(-c3n[nH]c(=O)o3)nc(C3CC3)c2CN1c1cc2c(cc1Cl)CCC(c1ncccc1F)O2 (centres unmarked)"
  TARGET_DESC: "FLAP (5-lipoxygenase activating protein)"
  inhibitory rate (%): 106
- COMPOUND: "COCCOc1cccc2[nH]c(=O)n(-c3cc(OCc4ncccc4F)ccc3C)c(=O)c12"
  TARGET_DESC: "FLAP (5-lipoxygenase activating protein)"
  inhibitory rate (%): 95
- COMPOUND: "Cc1cc2c(cc1N1Cc3c(ccnc3C(C)C)NC1=O)OC(c1ncccc1F)CC2 (centres unmarked)"
  TARGET_DESC: "FLAP (5-lipoxygenase activating protein)"
  inhibitory rate (%): 104
- COMPOUND: "Cc1cc2c(cc1N1Cc3c(cc(C4COC4)nc3C3CC3)NC1=O)OC(c1ncccc1F)CC2 (centres unmarked)"
  TARGET_DESC: "FLAP (5-lipoxygenase activating protein)"
  inhibitory rate (%): 116
- COMPOUND: "Cc1ccc(OCc2ncccc2F)cc1N1Cc2c(Cl)cc(C(=O)NC3CC3)cc2NC1=O"
  TARGET_DESC: "FLAP (5-lipoxygenase activating protein)"
  inhibitory rate (%): 113
- COMPOUND: "Cc1ccc(OCc2c(F)cccc2F)cc1N1Cc2cccc(CO)c2NC1=O"
  TARGET_DESC: "FLAP (5-lipoxygenase activating protein)"
  inhibitory rate (%): 71
- COMPOUND: "Cc1ccc(OCc2ncccc2F)cc1-n1c(=O)[nH]c2ccccc2c1=O"
  TARGET_DESC: "FLAP (5-lipoxygenase activating protein)"
  inhibitory rate (%): 104
- COMPOUND: "CC(C)(O)c1ccc2c(c1)NC(=O)N(c1cc(OCc3c(F)cccc3F)ccc1F)C2"
  TARGET_DESC: "FLAP (5-lipoxygenase activating protein)"
  inhibitory rate (%): 87
- COMPOUND: "O=C1Nc2cncc(C(F)(F)F)c2CN1c1cc2c(cc1Cl)CCC(c1ncccc1F)O2 (centres unmarked)"
  TARGET_DESC: "FLAP (5-lipoxygenase activating protein)"
  inhibitory rate (%): 105
- COMPOUND: "Cc1ccc(OCc2ncccc2F)cc1N1Cc2c(ccnc2C)NC1=O"
  TARGET_DESC: "FLAP (5-lipoxygenase activating protein)"
  inhibitory rate (%): 94
- COMPOUND: "Cc1cc2c(cc1N1Cc3c(Cl)cnc(-c4ccnn4C)c3NC1=O)OC(c1ncccc1F)CC2 (centres unmarked)"
  TARGET_DESC: "FLAP (5-lipoxygenase activating protein)"
  inhibitory rate (%): 93
- COMPOUND: "O=C1Nc2cncc(Cl)c2CN1c1cc2c(cc1Cl)CCC(c1ncccc1F)O2 (centres unmarked)"
  TARGET_DESC: "FLAP (5-lipoxygenase activating protein)"
  inhibitory rate (%): 103
- COMPOUND: "Cc1ccc(OCc2ccccc2F)cc1N1Cc2ccccc2NC1=O"
  TARGET_DESC: "FLAP (5-lipoxygenase activating protein)"
  inhibitory rate (%): 80
- COMPOUND: "CC(C)(O)CNC(=O)c1cc2c(c(C3CC3)n1)CN(c1cc3c(cc1Cl)CCC(c1ncccc1F)O3)C(=O)N2 (centres unmarked)"
  TARGET_DESC: "FLAP (5-lipoxygenase activating protein)"
  inhibitory rate (%): 106
- COMPOUND: "COC(=O)c1ccc2c(c1)NC(=O)N(c1cc(OCc3ncc(C)s3)ccc1C)C2"
  TARGET_DESC: "FLAP (5-lipoxygenase activating protein)"
  inhibitory rate (%): 94
- COMPOUND: "Cc1ncc(Cl)c2c1NC(=O)N(c1cc3c(cc1Cl)CC[C@@H](c1ncccc1F)O3)C2"
  TARGET_DESC: "FLAP (5-lipoxygenase activating protein)"
  inhibitory rate (%): 104
- COMPOUND: "Cc1cc2c(cc1N1Cc3c(cc(-c4ccnn4C)nc3C3CC3)NC1=O)OC(c1ncccc1F)CC2 (centres unmarked)"
  TARGET_DESC: "FLAP (5-lipoxygenase activating protein)"
  inhibitory rate (%): 112
- COMPOUND: "Cn1cc(-c2cc3c(c(C4CC4)n2)CN(c2cc4c(cc2Cl)CCC(c2ncccc2F)O4)C(=O)N3)cn1 (centres unmarked)"
  TARGET_DESC: "FLAP (5-lipoxygenase activating protein)"
  inhibitory rate (%): 100
- COMPOUND: "Cc1cc2c(cc1N1Cc3c(ccnc3C(F)F)NC1=O)OC(c1ncccc1F)CC2 (centres unmarked)"
  TARGET_DESC: "FLAP (5-lipoxygenase activating protein)"
  inhibitory rate (%): 96
- COMPOUND: "O=C1CNCCN1c1cc2c(c(C3CC3)n1)CN(c1cc3c(cc1Cl)CCC(c1ncccc1F)O3)C(=O)N2 (centres unmarked)"
  TARGET_DESC: "FLAP (5-lipoxygenase activating protein)"
  inhibitory rate (%): 95
- COMPOUND: "Cc1ccc(OC(C)c2ncccc2F)cc1N1Cc2ccccc2NC1=O (centres unmarked)"
  TARGET_DESC: "FLAP (5-lipoxygenase activating protein)"
  inhibitory rate (%): 79
- COMPOUND: "Cc1ccc(OCc2ncccc2F)cc1-n1c(=O)[nH]c2cccc(OCC3CC3)c2c1=O"
  TARGET_DESC: "FLAP (5-lipoxygenase activating protein)"
  inhibitory rate (%): 100
- COMPOUND: "Cc1cc2c(cc1N1Cc3c(cc(-n4cc(CO)cn4)nc3C3CC3)NC1=O)OC(c1ncccc1F)CC2 (centres unmarked)"
  TARGET_DESC: "FLAP (5-lipoxygenase activating protein)"
  inhibitory rate (%): 98
- COMPOUND: "COCCOc1ccc2c(=O)n(-c3cc(OCc4ncccc4F)ccc3C)c(=O)n(CCOC)c2c1"
  TARGET_DESC: "FLAP (5-lipoxygenase activating protein)"
  inhibitory rate (%): 107
- COMPOUND: "NC(=O)c1cc2c(c(C3CC3)n1)CN(c1cc3c(cc1Cl)CCC(c1ncccc1F)O3)C(=O)N2 (centres unmarked)"
  TARGET_DESC: "FLAP (5-lipoxygenase activating protein)"
  inhibitory rate (%): 89
- COMPOUND: "O=C1Nc2ccnc(C(F)(F)F)c2CN1c1cc2c(cc1F)CCC(c1ncccc1F)O2 (centres unmarked)"
  TARGET_DESC: "FLAP (5-lipoxygenase activating protein)"
  inhibitory rate (%): 113
- COMPOUND: "O=C1Nc2cc(-c3nsc(=O)[nH]3)nc(C3CC3)c2CN1c1cc2c(cc1Cl)CCC(c1ncccc1F)O2 (centres unmarked)"
  TARGET_DESC: "FLAP (5-lipoxygenase activating protein)"
  inhibitory rate (%): 91

###

System: FLAP (5-lipoxygenase activating protein)
Experiment: In vitro binding test: displacement of [3H]-7-chloro-3-(5-((3-fluoropyridin-2-yl)methoxy)-2-methylphenyl)-3,4-dihydroquinazolin-2(1H)-one from Sf9 microsome fractions
Design: species or system human and mouse
Details: Sf9 microsome fractions expressing FLAP; 100% = radioligand binding with 10 μM sodium 3-(3-(tert-butylsulfanyl)-1-(4-chlorobenzyl)-5-isopropyl-1H-indol-2-yl)-2,2-dimethylpropanoate, 0% = DMSO; test compound concentration not given
EXPERIMENTAL_READOUT: inhibitory rate (%)

- MOLECULE: "Cc1ccc(OCc2c(F)cccc2F)cc1N1Cc2ccc(C(C)(C)O)cc2NC1=O"
  NUMERIC_READOUT: 81
- MOLECULE: "Cc1ccc(OCc2ncccc2F)cc1N1Cc2c(C#N)cccc2NC1=O"
  NUMERIC_READOUT: 104
- MOLECULE: "Cc1ccc(OCc2ncccc2F)cc1N1Cc2c(Cl)cccc2NC1=O"
  NUMERIC_READOUT: 102
- MOLECULE: "CCc1nccc2c1CN(c1cc3c(cc1C)CCC(c1ncccc1F)O3)C(=O)N2 (centres unmarked)"
  NUMERIC_READOUT: 82
- MOLECULE: "O=C1Nc2cc(-c3noc(=O)[nH]3)nc(C3CC3)c2CN1c1cc2c(cc1Cl)CCC(c1ncccc1F)O2 (centres unmarked)"
  NUMERIC_READOUT: 94
- MOLECULE: "CC(C)(O)c1cc2c(c(C3CC3)n1)CN(c1cc3c(cc1Cl)CCC(c1ncccc1F)O3)C(=O)N2 (centres unmarked)"
  NUMERIC_READOUT: 103
- MOLECULE: "Cc1cc2c(cc1N1Cc3c(cc(-n4cncn4)nc3C3CC3)NC1=O)OC(c1ncccc1F)CC2 (centres unmarked)"
  NUMERIC_READOUT: 99
- MOLECULE: "O=C1Nc2ccccc2CN1c1cc(OCc2ncccc2F)ccc1C1CC1"
  NUMERIC_READOUT: 114
- MOLECULE: "COCCOc1cnc(C(F)(F)F)c2c1NC(=O)N(c1cc3c(cc1C)CCC(c1ncccc1F)O3)C2 (centres unmarked)"
  NUMERIC_READOUT: 99
- MOLECULE: "Cc1cc2c(cc1N1Cc3c(Cl)cnc(-c4c(C)noc4C)c3NC1=O)OC(c1ncccc1F)CC2 (single isomer, unassigned; (+)) [Example 12]"
  NUMERIC_READOUT: 99
- MOLECULE: "O=C(NCCO)c1cc2c(c(C3CC3)n1)CN(c1cc3c(cc1Cl)CCC(c1ncccc1F)O3)C(=O)N2 (centres unmarked)"
  NUMERIC_READOUT: 96
- MOLECULE: "Cc1n[nH]c(-c2cc3c(c(C4CC4)n2)CN(c2cc4c(cc2Cl)CCC(c2ncccc2F)O4)C(=O)N3)n1 (centres unmarked)"
  NUMERIC_READOUT: 107
- MOLECULE: "Cc1ccc(OCc2ncccc2F)cc1N1Cc2ccc(C(=O)N3CCOCC3)cc2NC1=O"
  NUMERIC_READOUT: 104
- MOLECULE: "Cc1cc2c(cc1N1Cc3c(C4CC4)cnc(-c4cnn(C)c4)c3NC1=O)OC(c1ncccc1F)CC2 (centres unmarked)"
  NUMERIC_READOUT: 95
- MOLECULE: "COc1cccc2c1CN(c1cc(OCc3ncccc3F)ccc1C)C(=O)N2"
  NUMERIC_READOUT: 85
- MOLECULE: "COC(=O)c1ccc2c(c1)NC(=O)N(c1cc(OCc3ccc(F)cc3F)ccc1C)C2"
  NUMERIC_READOUT: 100
- MOLECULE: "Cc1ccc(OCc2ncccc2F)cc1N1Cc2cccnc2NC1=O"
  NUMERIC_READOUT: 85
- MOLECULE: "Cc1cc2c(cc1N1Cc3c(cc(CCC(=O)O)nc3C3CC3)NC1=O)OC(c1ncccc1F)CC2 (centres unmarked)"
  NUMERIC_READOUT: 104
- MOLECULE: "O=C(O)c1cc2c(c(C3CC3)n1)CN(c1cc3c(cc1Cl)CCC(c1ncccc1F)O3)C(=O)N2 (centres unmarked)"
  NUMERIC_READOUT: 107
- MOLECULE: "Cc1cc2c(cc1N1Cc3c(Cl)cnc(-c4cnn(C)c4)c3NC1=O)OC(c1ncccc1F)CC2 (centres unmarked)"
  NUMERIC_READOUT: 97
- MOLECULE: "COC(=O)c1ccc2c(c1)NC(=O)N(c1cc(OCc3cccc(F)c3F)ccc1C)C2"
  NUMERIC_READOUT: 94
- MOLECULE: "O=C(O)CCCCc1ccc(OCc2ncccc2F)cc1N1Cc2ccccc2NC1=O"
  NUMERIC_READOUT: 68
- MOLECULE: "O=C1Nc2cc(N3CCCS3(=O)=O)nc(C3CC3)c2CN1c1cc2c(cc1Cl)CCC(c1ncccc1F)O2 (centres unmarked)"
  NUMERIC_READOUT: 94
- MOLECULE: "CCCN1CCN(Cc2ccc(OCc3ncccc3F)cc2N2Cc3ccccc3NC2=O)CC1"
  NUMERIC_READOUT: 58
- MOLECULE: "N#Cc1ccc(OCc2ncccc2F)cc1N1Cc2c(Cl)cccc2NC1=O"
  NUMERIC_READOUT: 96
- MOLECULE: "CCc1ccc(OCc2ncccc2F)cc1N1Cc2ccccc2NC1=O"
  NUMERIC_READOUT: 106
- MOLECULE: "O=C(c1cc2c(c(C3CC3)n1)CN(c1cc3c(cc1Cl)CCC(c1ncccc1F)O3)C(=O)N2)N1CC(F)(F)C1 (centres unmarked)"
  NUMERIC_READOUT: 98
- MOLECULE: "CC(=O)c1nccc2c1CN(c1cc3c(cc1C)CCC(c1ncccc1F)O3)C(=O)N2 (centres unmarked)"
  NUMERIC_READOUT: 111
- MOLECULE: "Cc1ccc(OCc2ncccc2F)cc1N1Cc2nn(C)cc2NC1=O"
  NUMERIC_READOUT: 70
- MOLECULE: "O=c1[nH]c2cnccc2c(=O)n1-c1cccc(OCc2c(F)cccc2F)c1"
  NUMERIC_READOUT: 72
- MOLECULE: "N#Cc1ncc(Cl)c2c1NC(=O)N(c1cc3c(cc1Cl)CCC(c1ncccc1F)O3)C2 (centres unmarked)"
  NUMERIC_READOUT: 104
- MOLECULE: "Cc1ccc(OCc2c(F)cccc2F)cc1N1Cc2ccc(C(N)=O)cc2NC1=O"
  NUMERIC_READOUT: 97

The measurements presented in this section are drawn from patent US20150299188A1.
